Origin of measurements: PubChem BioAssay (EPA / NIEHS)

test: ATG_GLI_CIS: Attagene CIS-FACTORIAL HepG2 Assay for human Zinc Finger Protein GLI1 (AID 2282945); conditions: HepG2, Attagene cis-factorial reporter mRNA, GLI element; actives raise or lower the signal
The source made the active and inactive calls. The calls were made as follows: active = hit-call score of the fitted dose curve at least 0.9, where 1 is the maximum; inactive = score below 0.9.
Output constraint: value belongs to 1 (active), 0 (inactive)

Check out these entries, answers already filled in.
CCCC[n+]1ccccc1 ... 0
O=C(O)c1cccc(C(F)(F)F)c1 ... 0
C=CCOc1nc(OCC=C)nc(OCC=C)n1 ... 0
C=CC(C)(C)O ... 0
CC(=O)Nc1ccccc1O ... 0
O=S(=O)(O)c1cccc2c(S(=O)(=O)O)cccc12 ... 0
COc1ccc(Cl)cc1C ... 0
CCCCCCCCCCCCOCCO ... 1
CCCCC(CC)COCCC#N (stereo not given) ... 0

Here's the next entry for you.
Check the results log: what was the call for CN1Cc2c(N)cccc2C(c2ccccc2)C1 (stereo not given) ?
0
